// data source = patent US20250250357A1

# assayedSystem: T1, human MSLN-hFc protein (Acro, Cat. No. MSN-H5253) (human, UniProt Q13421 296-580)
# T1 construct: bought protein; also called human MSLN full-length protein; not shown: human Fc (hFc) of the bought protein
# T1 sequence (Q13421 other isoform, or with tags, fused parts or gaps limits assumed): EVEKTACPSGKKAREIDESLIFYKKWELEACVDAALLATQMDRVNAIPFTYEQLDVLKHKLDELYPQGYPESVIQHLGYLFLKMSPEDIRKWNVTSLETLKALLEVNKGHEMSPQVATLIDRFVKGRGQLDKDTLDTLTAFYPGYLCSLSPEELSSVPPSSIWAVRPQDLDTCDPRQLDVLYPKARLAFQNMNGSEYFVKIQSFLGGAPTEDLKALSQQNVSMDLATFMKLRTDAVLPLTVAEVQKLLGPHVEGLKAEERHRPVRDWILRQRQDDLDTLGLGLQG
# assaySummary: ELISA, coated human MSLN-hFc, antibody 0.01 nM
Overview of reported OD450 nm across a group of binders:
Lab note: record just the number, no unit beside it.

binder="F2.39.3-H8 (scFv, not shown: small tags and cut ends, also called S009-F2.39.3 humanized VH2 + VL4) scFv: EVQLVQSGAEVKKPGASVKVSCKASGYTFTNYWMHWVRQAPGQGLEWMGNINPSSGDSYYNERFMSRVTMTVDKSTSTAYMELSSLRSEDTAVYYCARSGGLWLAFWGQGTLVTVSSGGGGSGGGGSGGGGSDIVMTQTPLSLSVTPGQPASISCKSSQTLLNSVSQNNYLAWYQQKPGQSPTLLVYFASTRESGVPDRFSGSGSGTDFTLKISRVEAEDVGVYYCQQHYRTPYTFGGGTKVEIK" numericresult=0.06
binder="F2.39.3-H1 (scFv, not shown: small tags and cut ends, expressed as VH-(G4S)3-VL-his or VL-(G4S)3-VH-his; also called S009-F2.39.3 humanized VH1 + VL1) scFv: EVQLVQSGAEVKKPGASVKVSCKASGYTFTNYWMHWVRQAPGQGLEWMGNINPSSGDSYYNERFMSRVTMTVDKSTSTVYMELSSLRSEDTAVYYCARSGGLWLAFWGQGTLVTVSSGGGGSGGGGSGGGGSDIVMTQSPDSLAVSLGERATINCKSSQTLLNSVSQNNYLAWYQQKPGQSPKLLIYFASTRESGVPDRFSGSGSGTDFTLTISSLQAEDVAVYYCQQHYRTPYTFGGGTKVEIK" numericresult=0.07

Shift focus to the following entry.
So, F2.39.3-H5 (scFv, not shown: small tags and cut ends, also called S009-F2.39.3 humanized VH2 + VL1) scFv: EVQLVQSGAEVKKPGASVKVSCKASGYTFTNYWMHWVRQAPGQGLEWMGNINPSSGDSYYNERFMSRVTMTVDKSTSTAYMELSSLRSEDTAVYYCARSGGLWLAFWGQGTLVTVSSGGGGSGGGGSGGGGSDIVMTQSPDSLAVSLGERATINCKSSQTLLNSVSQNNYLAWYQQKPGQSPKLLIYFASTRESGVPDRFSGSGSGTDFTLTISSLQAEDVAVYYCQQHYRTPYTFGGGTKVEIK ? Its OD450 nm was 0.06
